Reference source: ChEMBL document CHEMBL1201862

system: RPMI-8226; assay: NCI tumour cell line growth inhibition, 48 h
Calls of active or inactive are those of the source. No stated cut-off is given here; in the data, active = GI50 up to about 1.1 µM and inactive = higher.
Outcomes: yes = active, no = inactive

C=C(C)[C@@H]1CCC2=C[C@H](C/C(C)=C\C3=CC(C)=C(O3)[C@H]1O)OC2=O	no
CCOC1SC(SC)=NN1C(=O)C(OC(C)=O)C(OC(C)=O)C(OC(C)=O)C(OC(C)=O)C(=O)N1N=C(SC)SC1OCC (centres undefined)	no
COC1=CC(=O)C2C(C1=O)[C@@H]1c3ccccc3OC[C@H]21 (some centres undefined)	no
CC1C(=O)CCC1C(Sc1ccccc1)(Sc1ccccc1)Sc1ccccc1 (centres undefined)	no
COC(=O)C1C(=O)O[C@@H](c2ccc(OC)cc2)C1C(=O)OC (some centres undefined)	no
COC(=O)[C@H](C)NC(=O)[C@H](NS(=O)(=O)c1nc2ccccc2s1)c1ccccc1	no
CC[C@@]1(O)C[C@H](OC2CC(N(C)C)C(OC3CC(O)C(OC4CCC(=O)C(C)O4)C(C)O3)C(C)O2)c2c(cc3c(c2O)C(=O)c2c(O)cccc2C3=O)[C@H]1C(=O)OC (some centres undefined)	yes
Nc1ccc2[nH]c(C(=O)N3CC(CCl)c4c3cc(N)c3ccccc43)cc2c1 (centres undefined)	yes
O=c1c2cc(Br)cc(Br)c2[nH]c(=S)n1-c1ccccc1	no
